B1: ZNF8 (parent)
chain: RIHTGERPYMCKECGKAFSQNSSL

variants of: B1; test: protein stability index of a GFP-peptide fusion (GPS, HEK-293T) (PSI 1-6); higher = more stable; settings: c terminus: a fixed tail appended;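 further: lentivirally expressed fusions sorted by FACS into six bins by GFP to DsRed ratio, PSI derived from sequencing read proportions per bin multiplied by bin number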
# protein stability index per entry
Keep the answer to the number alone.

The examples below pair each entry with its known result.
H3G :: 3.12
P8T :: 2.96
N21Y :: 1.5

What value of protein stability index has been recorded for this entry: "Q20F"
1.83

Same lookup for "E6W" , please.
2.27

Same lookup for "A17W" , please.
2.65

Same lookup for "T4H" , please.
2.43
